Task for the reader: assign each of the following compounds its reported normalised viability.
- System: HCC1599
- Assay Procedure: normalised viability (% of control), CellTiter-Blue; higher = more viable cells (100 = DMSO, 0 = benzethonium chloride kill control)
- Experimental Context: incubation time: 72 h
One number for each entry, in %.

Reference set (3 entries):
Reported normalised viability for Nc1ncn([C@@H]2O[C@H](CO)[C@@H](O)[C@H]2O)c(=O)n1 [Azacitidine] (1 nM) : what is it? 89.1

Next record, please: CC1(C)CNc2cc(NC(=O)c3cccnc3NCc3ccncc3)ccc21 [Motesanib] (1 nM) 84.8

Proceed to C[C@]12CC[C@@H]3c4ccc(OC(=O)N(CCCl)CCCl)cc4CC[C@H]3[C@@H]1CC[C@@H]2O [Estramustine] (0.099 nM) 84.8

API: the following record is the query input.
Please look up its normalised viability: COc1cc(F)c(F)c(Nc2ccc(I)cc2F)c1NS(=O)(=O)C1(C[C@H](O)CO)CC1 [RDEA119] (1 nM) 93
